Readout type: melting point

Prompt: What value of melting point has been reported for the following compound? O=Cc1cc(-c2ccc(F)c(Cl)c2)cs1
Response: 108 to 110 °C

Prompt: What value of melting point has been reported for the following compound? Cc1ccc(-c2csc(C=O)c2)cc1
Response: 58 to 60 °C

Prompt: What value of melting point has been reported for the following compound? Cc1cc(C)cc(-c2csc(C=O)c2)c1
Response: 71 to 73 °C

Prompt: What value of melting point has been reported for the following compound? Cc1ccc(-c2csc(C=O)c2)s1
Response: 218 to 220 °C

----------
Readout type: melting point

Prompt: What value of melting point has been reported for the following compound? O=Cc1cc(-c2ccccc2)cs1
Response: 57 to 59 °C

Prompt: What value of melting point has been reported for the following compound? COc1ccc(-c2csc(C=O)c2)cc1
Response: 68 to 70 °C

Prompt: What value of melting point has been reported for the following compound? O=Cc1cc(-c2ccc(Cl)c(Cl)c2)cs1
Response: 158 to 160 °C

Prompt: What value of melting point has been reported for the following compound? O=Cc1cc(-c2cc(C(F)(F)F)cc(C(F)(F)F)c2)cs1
Response: 95 to 97 °C

Prompt: What value of melting point has been reported for the following compound? N#Cc1cc(-c2csc(C=O)c2)cc(C(F)(F)F)c1
Response: 252 to 254 °C

Prompt: What value of melting point has been reported for the following compound? O=Cc1cc(-c2ccc(Cl)s2)cs1
Response: 229 to 231 °C

----------
Could you please report measured inhibition for the items listed next?
Experiment: Nitric oxide (NO) scavenging assay
Assay type: biochemical
Conditions: 50 µg/mL; read-out: % Activity at 50 µg (NO scavenging)

Prompt: What value of inhibition has been reported for the following compound? O=Cc1cc(-c2cc(C(F)(F)F)cc(C(F)(F)F)c2)cs1
Response: 45%

Prompt: What value of inhibition has been reported for the following compound? O=Cc1cc(-c2ccc(Cl)c(Cl)c2)cs1
Response: 20%

Prompt: What value of inhibition has been reported for the following compound? Cc1ccc(-c2csc(C=O)c2)cc1
Response: -12%

Prompt: What value of inhibition has been reported for the following compound? O=C1O[C@H]([C@@H](O)CO)C(O)=C1O [Ascorbic Acid, ascorbic acid, reference compound]
Response: 61%

Prompt: What value of inhibition has been reported for the following compound? O=Cc1cc(-c2ccc(Cl)s2)cs1
Response: 40%

----------
Assay: Nitric oxide (NO) scavenging assay
Type: biochemical
Settings: 100 µg/mL; read-out: % Activity at 100 µg (NO scavenging)
Readout type: inhibition (%)
Numbers only; they are read as %.

Prompt: What value of inhibition has been reported for the following compound? O=Cc1cc(-c2ccccc2)cs1 [2a, 4-Phenylthiophene-2-carbaldehyde]
Response: 48

Prompt: What value of inhibition has been reported for the following compound? Cc1ccc(-c2csc(C=O)c2)cc1 [2e, 4-p-Tolylthiophene-2-carbaldehyde]
Response: 3

Prompt: What value of inhibition has been reported for the following compound? O=C1O[C@H]([C@@H](O)CO)C(O)=C1O [Ascorbic Acid, ascorbic acid, reference compound]
Response: 77

Prompt: What value of inhibition has been reported for the following compound? COc1ccc(-c2csc(C=O)c2)cc1 [2f]
Response: 25

Prompt: What value of inhibition has been reported for the following compound? Cc1ccc(-c2csc(C=O)c2)s1 [2j, 5-Methyl-2,3-bisthiophene-5-carbaldehyde]
Response: 65

Prompt: What value of inhibition has been reported for the following compound? N#Cc1cc(-c2csc(C=O)c2)cc(C(F)(F)F)c1 [2d]
Response: 73

Prompt: What value of inhibition has been reported for the following compound? O=Cc1cc(-c2ccc(F)c(Cl)c2)cs1 [2i]
Response: 72

Prompt: What value of inhibition has been reported for the following compound? O=Cc1cc(-c2ccc(Cl)c(Cl)c2)cs1 [2h]
Response: 35

Prompt: What value of inhibition has been reported for the following compound? O=Cc1cc(-c2cc(C(F)(F)F)cc(C(F)(F)F)c2)cs1 [2b]
Response: 60

Prompt: What value of inhibition has been reported for the following compound? Cc1cc(C)cc(-c2csc(C=O)c2)c1 [2g]
Response: 43

Prompt: What value of inhibition has been reported for the following compound? O=Cc1cc(-c2ccc(Cl)s2)cs1 [2c]
Response: 55
